Test system: HOP-62 NSCLC
MEASUREMENT PROTOCOL: NCI tumour cell line growth inhibition, 48 h
GI50 listing for selected compounds.
RESULT TYPE: GI50

{"columns": ["COMPOUND", "TARGET SYSTEM", "RESULT TYPE", "ENDPOINT RESULT"],
 "data": [
  ["Cc1cc(C2CC(O)C(CO)O2)c(Br)cc1Br (centres undefined)", "HOP-62 NSCLC", "GI50", "> 100 µM"],
  ["CCCCCCCN(CCCCCCC)C(=N)c1ccc(OC)c2ccccc12", "HOP-62 NSCLC", "GI50", "1.3 µM"],
  ["COc1cccc(/C=C/C(=O)c2cc3c(N)c(C(=O)Nc4ccccc4)sc3nc2C)c1", "HOP-62 NSCLC", "GI50", "1.09 µM"],
  ["COc1cc(/C=C/[N+](=O)[O-])cc(OC)c1", "HOP-62 NSCLC", "GI50", "2.93 µM"],
  ["O=C(COc1ccc(Cl)cc1Cl)NNc1ccc([N+](=O)[O-])cc1", "HOP-62 NSCLC", "GI50", "19.7 µM"],
  ["C=C1[C@H](O)C[C@@H](C(C)C(O)CC=C(C)C)[C@@H](O)[C@@H]2C(C)=CC[C@@H]12 (some centres undefined)", "HOP-62 NSCLC", "GI50", "> 100 µM"],
  ["Cc1cc(S(=O)(=O)Nc2nc3ccccc3s2)c(SCc2ccccc2)cc1Cl", "HOP-62 NSCLC", "GI50", "31.6 µM"],
  ["[N-]=[N+]=NCCCn1c2c(c3ccccc3c1=O)C(=O)c1cc3c(cc1-2)OCO3", "HOP-62 NSCLC", "GI50", "17.6 µM"],
  ["C=C1C(=O)O[C@H]2[C@H]1CC/C(COC(=O)NCCc1ccc(Br)cc1)=C\\CC[C@@]1(C)O[C@@H]21", "HOP-62 NSCLC", "GI50", "1.99 µM"]
]}

---

Test system: BT-549 breast
MEASUREMENT PROTOCOL: NCI tumour cell line growth inhibition, 48 h
RESULT TYPE: TGI (µM)

{"columns": ["COMPOUND", "RESULT TYPE", "VALUE UNIT", "CENSORING SIGN", "ENDPOINT RESULT"],
 "data": [
  ["COc1ccccc1-c1nc[nH]c1-c1ccccc1OC", "TGI", "µM", ">", 100],
  ["CCN(CC(O)COc1ccc2c(c1)[n+]([O-])nc(N)[n+]2[O-])C(C)=O (configuration not stated)", "TGI", "µM", ">", 100],
  ["O=C1/C(=C/Cc2ccco2)N=C(c2ccccc2)N1c1nc2ccc(Sc3ccccc3)cc2[nH]1", "TGI", "µM", "=", 57.7],
  ["COc1cc(N2CCN(C(C)C)CC2)ccc1Nc1nc(Nc2ccc(F)cc2C(N)=O)c2cc[nH]c2n1", "TGI", "µM", "=", 6.93],
  ["OCC1OC(n2cnc3cc(Cl)c(Cl)cc32)C(O)C1O (configuration not stated)", "TGI", "µM", "=", 58.4],
  ["COc1ccc(CC2OC3(CCCCC3)CC3CCCCN32)cc1 (configuration not stated)", "TGI", "µM", ">", 100],
  ["CN1CCN(CCCn2c3c(sc4ncccc43)c(=O)n3nnc(-c4ccccc4)c23)CC1", "TGI", "µM", "=", 30.6],
  ["COc1cc(OC)c(OC)cc1/C=C/c1ccc2ccccc2n1", "TGI", "µM", ">", 10],
  ["O=C(O)Cn1cnc2c(=O)[nH]c(Nc3ccccc3)nc21", "TGI", "µM", ">", 100],
  ["CCc1c[n+]2c(cc1C1=CN3c4ccccc4[C@]45CCN6C/C(=C/CO)[C@H](C[C@H]64)[C@@H]([C@@H]1O)[C@H]35)-c1[nH]c3ccccc3c1CC2", "TGI", "µM", ">", 50],
  ["Cc1ccc(S(=O)(=O)N(CC(O)COc2ccccc2)c2ccccc2Cl)cc1 (configuration not stated)", "TGI", "µM", "=", 31.4],
  ["CC(=O)O[C@H]1C(=O)[C@@]2(C)C(C(OC(=O)c3ccccc3)[C@]3(O)CC(OC(=O)C(O)C(NC(=O)c4cccc(Cl)c4)c4ccccc4)C(C)=C1C3(C)C)[C@]1(OC(C)=O)CO[C@@H]1C[C@@H]2O (some centres not stated)", "TGI", "µM", ">", 10],
  ["CN1CN(c2ccccc2)C2(CCN(C(=O)OC(C)(C)C)CC2)C1=O", "TGI", "µM", ">", 100],
  ["COc1cc(/C=[N+](\\[O-])c2ccccc2Cl)ccc1OC(=S)S", "TGI", "µM", "=", 68.3],
  ["CCN(Cc1c(F)cccc1C(F)(F)F)c1ccc(CO)c(Cl)c1", "TGI", "µM", "=", 32],
  ["O=C(Nc1c(Cl)cccc1Cl)Oc1cccc2cccnc12", "TGI", "µM", "=", 90],
  ["COc1cccc(/C=C/C(=O)c2cc3c(N)c(C(=O)Nc4ccccc4)sc3nc2C)c1", "TGI", "µM", "=", 4.06]
]}
